target: cholinergic muscarine receptors; format: binding, rat; settings: [^3H] QNB displacement expressed in Ki; homogenates of rat brains; read-out: Affinity to muscarine receptors 2)
readout: Ki (nM)
Numbers only; they are read as nM.

// worked examples, Ki included
[[record]]
compound = "CCN(CCCC(=O)C1CCCCC1)C(C)Cc1ccc(O)cc1 (racemic)"
measured = 9.6

[[record]]
compound = "CCCC(=O)CCCN(CC)C(C)Cc1ccc(OC)cc1 (racemic) [e, reference compound]"
measured = 28

[[record]]
compound = "CCN(CCCC(=O)C1CCCCC1)C(C)Cc1ccc(OC)cc1 (racemic) [g, reference compound]"
measured = 2.7

[[record]]
compound = "CCN(CCCC(=O)C1CCCCC1)[C@@H](C)Cc1ccc(O)cc1"
measured = 4.1

[[record]]
compound = "CCN(CCCC(=O)C1CCCCC1)C(C)Cc1ccc(Cl)cc1 (racemic) [f, reference compound]"
measured = 8.3

[[record]]
compound = "CCCN(CCCC(=O)C1CCCCC1)C(C)Cc1ccc(O)cc1 (racemic)"
measured = 5.2


Alright, here's another compound for you.
Recorded Ki for `CCN(CCCC(=O)C1CCCCC1)[C@H](C)Cc1ccc(O)cc1` , please?
450
